Data origin: the RNAGym collection of RNA variant scans (doi:10.7554/elife.80360)

In this section we review reported self-cleavage values for a set of variants.
B1: CPEB3 Ribozyme (parent)
chain: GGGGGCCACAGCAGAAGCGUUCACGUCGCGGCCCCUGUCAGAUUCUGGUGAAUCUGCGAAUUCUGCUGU

- Variants of: B1
- PROCEDURE_TEXT: self-cleavage, relative activity (ratio to wild type); higher = more cleavage; co-transcriptional
Form rule: numeric answer, no unit written next to it.

INSERT INTO assay_data (sequence_variant, assay_metric, observed_value) VALUES
  ('C22A U43A', 'self-cleavage', 0.143),
  ('G41U U67C', 'self-cleavage', 0.872),
  ('G2U A59C', 'self-cleavage', 0.05),
  ('U36C U53C', 'self-cleavage', 0.806),
  ('A8C U67A', 'self-cleavage', 1.04),
  ('A13U C63G', 'self-cleavage', 0.294);

For the next question, use this variant.
# input For the variant G1U A13U , what self-cleavage is on record?
# output 0.122
